- test_target: fusion protein PRS
- Sequence (chain, as listed by the source): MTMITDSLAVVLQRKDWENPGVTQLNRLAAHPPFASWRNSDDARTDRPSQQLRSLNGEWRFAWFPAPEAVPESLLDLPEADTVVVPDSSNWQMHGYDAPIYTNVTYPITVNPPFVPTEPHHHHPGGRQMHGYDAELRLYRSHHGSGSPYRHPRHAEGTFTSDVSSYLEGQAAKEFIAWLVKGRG
test_readout: relative cleavage efficiency

1) OmpT protease variant OmpT D97M (protein) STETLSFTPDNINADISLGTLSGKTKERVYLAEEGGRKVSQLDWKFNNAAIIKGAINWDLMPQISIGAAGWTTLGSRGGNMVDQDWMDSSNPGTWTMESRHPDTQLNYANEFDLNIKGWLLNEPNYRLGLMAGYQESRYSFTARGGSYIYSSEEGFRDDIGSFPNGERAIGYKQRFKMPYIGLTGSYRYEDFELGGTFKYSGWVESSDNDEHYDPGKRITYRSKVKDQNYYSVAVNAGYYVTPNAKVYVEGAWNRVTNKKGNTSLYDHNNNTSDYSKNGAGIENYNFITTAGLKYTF : 7.1%
2) OmpT protease variant OmpT D97R (protein) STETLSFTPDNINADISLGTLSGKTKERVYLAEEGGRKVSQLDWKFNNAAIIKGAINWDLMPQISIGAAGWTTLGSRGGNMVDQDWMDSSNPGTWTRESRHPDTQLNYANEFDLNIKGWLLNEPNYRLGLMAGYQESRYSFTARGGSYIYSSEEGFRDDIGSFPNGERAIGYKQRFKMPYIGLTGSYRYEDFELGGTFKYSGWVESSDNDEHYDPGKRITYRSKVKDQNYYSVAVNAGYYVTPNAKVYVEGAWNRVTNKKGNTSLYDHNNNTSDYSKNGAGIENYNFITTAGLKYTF : less than 3.0%
3) OmpT protease variant OmpT D97Q (protein) STETLSFTPDNINADISLGTLSGKTKERVYLAEEGGRKVSQLDWKFNNAAIIKGAINWDLMPQISIGAAGWTTLGSRGGNMVDQDWMDSSNPGTWTQESRHPDTQLNYANEFDLNIKGWLLNEPNYRLGLMAGYQESRYSFTARGGSYIYSSEEGFRDDIGSFPNGERAIGYKQRFKMPYIGLTGSYRYEDFELGGTFKYSGWVESSDNDEHYDPGKRITYRSKVKDQNYYSVAVNAGYYVTPNAKVYVEGAWNRVTNKKGNTSLYDHNNNTSDYSKNGAGIENYNFITTAGLKYTF : 4.4%
4) OmpT protease variant OmpT D97I (protein) STETLSFTPDNINADISLGTLSGKTKERVYLAEEGGRKVSQLDWKFNNAAIIKGAINWDLMPQISIGAAGWTTLGSRGGNMVDQDWMDSSNPGTWTIESRHPDTQLNYANEFDLNIKGWLLNEPNYRLGLMAGYQESRYSFTARGGSYIYSSEEGFRDDIGSFPNGERAIGYKQRFKMPYIGLTGSYRYEDFELGGTFKYSGWVESSDNDEHYDPGKRITYRSKVKDQNYYSVAVNAGYYVTPNAKVYVEGAWNRVTNKKGNTSLYDHNNNTSDYSKNGAGIENYNFITTAGLKYTF : less than 3.0%
5) OmpT protease variant OmpT D97H (protein) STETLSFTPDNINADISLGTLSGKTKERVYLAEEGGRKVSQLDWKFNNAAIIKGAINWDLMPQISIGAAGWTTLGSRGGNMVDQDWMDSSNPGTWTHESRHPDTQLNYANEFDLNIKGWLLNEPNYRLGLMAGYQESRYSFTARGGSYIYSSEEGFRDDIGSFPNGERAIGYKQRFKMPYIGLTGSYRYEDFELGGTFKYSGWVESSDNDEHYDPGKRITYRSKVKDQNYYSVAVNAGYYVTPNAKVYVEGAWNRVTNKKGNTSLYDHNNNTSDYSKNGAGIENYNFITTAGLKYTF : 8.7%
6) OmpT protease variant OmpT D97A (protein) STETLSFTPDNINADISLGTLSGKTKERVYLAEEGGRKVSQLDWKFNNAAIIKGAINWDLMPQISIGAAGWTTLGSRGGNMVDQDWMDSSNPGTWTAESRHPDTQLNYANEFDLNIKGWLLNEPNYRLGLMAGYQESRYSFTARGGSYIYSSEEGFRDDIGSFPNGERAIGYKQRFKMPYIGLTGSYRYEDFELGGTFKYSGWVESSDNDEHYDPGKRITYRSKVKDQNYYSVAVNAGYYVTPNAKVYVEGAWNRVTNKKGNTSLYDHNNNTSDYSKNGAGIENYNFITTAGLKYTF : < 3%

**Query** Quick one: give measured relative cleavage efficiency for OmpT protease variant OmpT D97K (protein) STETLSFTPDNINADISLGTLSGKTKERVYLAEEGGRKVSQLDWKFNNAAIIKGAINWDLMPQISIGAAGWTTLGSRGGNMVDQDWMDSSNPGTWTKESRHPDTQLNYANEFDLNIKGWLLNEPNYRLGLMAGYQESRYSFTARGGSYIYSSEEGFRDDIGSFPNGERAIGYKQRFKMPYIGLTGSYRYEDFELGGTFKYSGWVESSDNDEHYDPGKRITYRSKVKDQNYYSVAVNAGYYVTPNAKVYVEGAWNRVTNKKGNTSLYDHNNNTSDYSKNGAGIENYNFITTAGLKYTF
**Result** less than 3.0%

**Query** Quick one: give measured relative cleavage efficiency for OmpT protease variant OmpT D97S (protein) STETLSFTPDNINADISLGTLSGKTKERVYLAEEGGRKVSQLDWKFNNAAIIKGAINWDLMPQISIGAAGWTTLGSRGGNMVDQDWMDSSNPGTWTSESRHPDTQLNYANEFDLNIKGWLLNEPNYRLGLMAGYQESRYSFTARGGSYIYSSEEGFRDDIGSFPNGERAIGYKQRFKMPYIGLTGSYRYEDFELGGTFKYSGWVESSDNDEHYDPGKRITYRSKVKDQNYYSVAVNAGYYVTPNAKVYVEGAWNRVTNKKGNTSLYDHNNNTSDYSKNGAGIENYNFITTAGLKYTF
**Result** < 3%
